Hello, the source for this data is patent US7071197B2, in case you need it.

# Ki annotations
Target: human α1d-adrenoceptor (Homo sapiens, UniProt P25100)
Construct: expressed in transfected cells
Sequence (P25100 1-572): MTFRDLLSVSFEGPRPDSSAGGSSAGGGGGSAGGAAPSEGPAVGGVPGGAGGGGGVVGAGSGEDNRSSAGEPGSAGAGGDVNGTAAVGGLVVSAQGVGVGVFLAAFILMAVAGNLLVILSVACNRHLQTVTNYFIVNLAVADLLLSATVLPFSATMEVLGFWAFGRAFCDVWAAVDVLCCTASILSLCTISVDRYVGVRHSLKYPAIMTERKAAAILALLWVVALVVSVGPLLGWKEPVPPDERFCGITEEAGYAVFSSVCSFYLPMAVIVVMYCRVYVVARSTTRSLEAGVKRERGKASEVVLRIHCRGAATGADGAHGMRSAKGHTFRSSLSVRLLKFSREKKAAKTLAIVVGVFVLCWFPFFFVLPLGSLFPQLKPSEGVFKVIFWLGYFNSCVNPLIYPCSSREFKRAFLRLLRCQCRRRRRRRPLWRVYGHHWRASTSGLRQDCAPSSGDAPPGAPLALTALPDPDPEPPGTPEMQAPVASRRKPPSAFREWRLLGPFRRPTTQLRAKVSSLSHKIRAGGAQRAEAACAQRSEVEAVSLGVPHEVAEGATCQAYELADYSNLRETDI
Experiment: [3H]prazosin binding to cloned human α1-adrenoceptor subtypes (α1d)
Settings: [3H]prazosin, CHO cell membranes; read-out: Binding affinity (Ki, nM) α1d
quantity.kind: Ki (nM)

> print(dat)
                                   molecule  units.of.measure  reported.value
1  COc1ccccc1N1CCN(CC[C@@H](c2ccccc2F)[C@H](O)C2CCCCC2)CC1 (racemic)                nM               1
2  COc1ccccc1N1CCN(CC[C@H](c2ccccc2)[C@@H](O)C2CCCCC2)CC1 (racemic) [Ex. 5, reference compound]                nM             0.5
3  COc1ccccc1N1CCN(CC[C@H](c2ccccc2F)[C@H](O)C2CCCCC2)CC1                nM             0.5
4  COc1ccccc1N1CCN(CC[C@H](c2ccccc2F)[C@@H](O)C2CCCCC2)CC1                nM             1.2

###

Biological target: human 5HT1A-serotonergic receptor (Homo sapiens)
Construct: expressed in transfected cells
Sequence (P08908 whole entry): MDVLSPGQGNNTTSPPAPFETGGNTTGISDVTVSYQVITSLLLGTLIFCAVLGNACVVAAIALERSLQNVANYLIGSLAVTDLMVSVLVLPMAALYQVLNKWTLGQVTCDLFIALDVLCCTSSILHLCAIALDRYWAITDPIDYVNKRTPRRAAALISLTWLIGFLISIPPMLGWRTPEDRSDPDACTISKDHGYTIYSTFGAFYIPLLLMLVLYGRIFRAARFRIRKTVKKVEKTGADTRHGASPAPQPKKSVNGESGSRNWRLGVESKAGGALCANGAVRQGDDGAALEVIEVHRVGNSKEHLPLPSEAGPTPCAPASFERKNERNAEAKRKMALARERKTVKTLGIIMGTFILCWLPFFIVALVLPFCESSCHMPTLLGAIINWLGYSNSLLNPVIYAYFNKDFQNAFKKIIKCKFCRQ
Experiment: [3H]8-OH-DPAT radioligand binding to human recombinant 5-HT1A receptors
Conditions: statistical signficance p<0.01
Method: A genomic clone coding for the human 5HT1A-serotonergic receptor was stably transfected in a human cell line (HeLa). […] [^3H]8-OH-DPAT binding: on the day of experiment, the cell membranes were resuspended in incubation buffer: 50 mM Tris HCl (pH 7.4), 2.5 mM MgCl2, […] (Fargin et al., Nature 335, 358–360, 1988). […] Non-specific binding was determined in the presence of 10 μM 5-HT. […]
quantity.kind: potency at the 5-HT1A receptor compared with Ex. 5

> print(dat)
                                   molecule                             tested.target          reported.value
1  COc1ccccc1N1CCN(CC[C@@H](c2ccccc2F)[C@H](O)C2CCCCC2)CC1 (racemic)  human 5HT1A-serotonergic receptor (Homo sapiens)  more potent than Ex. 5
2  COc1ccccc1N1CCN(CCC(c2ccccc2F)C(O)C2CCCCC2)CC1 (stereo not shown)  human 5HT1A-serotonergic receptor (Homo sapiens)  more potent than Ex. 5
3  COc1ccccc1N1CCN(CC[C@H](c2ccccc2F)[C@@H](O)C2CCCCC2)CC1  human 5HT1A-serotonergic receptor (Homo sapiens)  more potent than Ex. 5
4  COc1ccccc1N1CCN(CC[C@H](c2ccccc2F)[C@H](O)C2CCCCC2)CC1  human 5HT1A-serotonergic receptor (Homo sapiens)  more potent than Ex. 5

###

target: human cloned 5-HT1A receptors (Homo sapiens); construct: expressed in transfected cells; assay: [35S]GTPγS binding, membranes of HeLa cells transfected with human cloned 5-HT1A receptors; assay type: biochemical; settings: 5-HT maximal stimulation taken as 100%
Sequence (P08908 whole entry): as above
quantity.kind: Functional effect ([35S]GTPγS binding)

> print(dat)
                                   molecule                           quantity.kind      reported.value
1  O[C@@H](C1CCCCC1)[C@H](CCN1CCN(c2ccccc2OCC(F)(F)F)CC1)c1ccccc1F (racemic)  Functional effect ([35S]GTPγS binding)  Neutral antagonist
2  COc1ccccc1N1CCN(CCC(c2ccccc2F)C(O)C2CCCCC2)CC1 (stereo not drawn)  Functional effect ([35S]GTPγS binding)  Neutral antagonist
3  COc1ccccc1N1CCN(CC[C@@H](c2ccccc2F)[C@H](O)C2CCCCC2)CC1 [Ex. 1X]  Functional effect ([35S]GTPγS binding)     Partial agonist
4  COc1ccccc1N1CCN(CC[C@@H](c2ccccc2F)[C@H](O)C2CCCCC2)CC1 (racemic) [Ex. 1]  Functional effect ([35S]GTPγS binding)  Neutral antagonist
5  OC(C1CCCCC1)C(CCN1CCN(c2ccccc2OCC(F)(F)F)CC1)c1ccccc1F (stereo not drawn)  Functional effect ([35S]GTPγS binding)  Neutral antagonist
6  COc1ccccc1N1CCN(CC[C@H](c2ccccc2)[C@@H](O)C2CCCCC2)CC1 (racemic) [Ex. 5, reference compound]  Functional effect ([35S]GTPγS binding)  Neutral antagonist
7  COc1ccccc1N1CCN(CC[C@H](c2ccccc2F)[C@@H](O)C2CCCCC2)CC1  Functional effect ([35S]GTPγS binding)  Neutral antagonist
8  COc1ccccc1N1CCN(CC[C@H](c2ccccc2F)[C@H](O)C2CCCCC2)CC1  Functional effect ([35S]GTPγS binding)  Neutral antagonist
9  COc1ccccc1N1CCN(CC[C@@H](c2ccccc2F)[C@@H](O)C2CCCCC2)CC1  Functional effect ([35S]GTPγS binding)     Partial agonist

###

Target: human α1a-adrenoceptor (Homo sapiens)
Construct: expressed in transfected cells
Sequence (P35348 whole entry): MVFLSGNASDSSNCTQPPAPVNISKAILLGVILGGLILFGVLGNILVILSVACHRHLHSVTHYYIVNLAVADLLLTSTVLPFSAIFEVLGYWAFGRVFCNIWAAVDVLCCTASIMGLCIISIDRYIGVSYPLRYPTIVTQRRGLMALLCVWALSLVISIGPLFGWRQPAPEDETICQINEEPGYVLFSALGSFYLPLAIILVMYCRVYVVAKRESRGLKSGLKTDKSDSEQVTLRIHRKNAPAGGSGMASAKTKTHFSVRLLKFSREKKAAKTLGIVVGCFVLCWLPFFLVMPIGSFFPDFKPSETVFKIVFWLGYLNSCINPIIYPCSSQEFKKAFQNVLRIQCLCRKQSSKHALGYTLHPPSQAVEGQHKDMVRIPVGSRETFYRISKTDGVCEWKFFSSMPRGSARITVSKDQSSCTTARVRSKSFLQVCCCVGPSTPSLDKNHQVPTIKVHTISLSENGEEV
Assay: [3H]prazosin binding to cloned human α1-adrenoceptor subtypes (α1a)
Details: selectivity: ratio of Ki at α1a and Ki at 5-HT1A
Method: Binding to cloned human α1-adrenoceptor subtypes was performed in membranes from CHO cells (chinese hamster ovary cells) transfected by electroporation with DNA expressing the gene encoding each α1-adrenoceptor subtype. […] CHO cell membranes were resuspended and incubated in 50 mM Tris, pH 7.4, with 0.2 nM [^3H]prazosin, in a final volume of 1.02 ml for 30 min at 25° C., in absence or presence of competing drugs. Non-specific binding was determined in the presence of 10 μM phentolamine. […]
quantity.kind: α1a/5-HT1A

> print(dat)
                                   molecule  quantity.kind  reported.value
1  COc1ccccc1N1CCN(CC[C@H](c2ccccc2F)[C@H](O)C2CCCCC2)CC1 [Ex. 2X]     α1a/5-HT1A             183
2  COc1ccccc1N1CCN(CC[C@H](c2ccccc2F)[C@@H](O)C2CCCCC2)CC1 [Ex. 1Y]     α1a/5-HT1A              65
3  COc1ccccc1N1CCN(CC[C@@H](c2ccccc2F)[C@H](O)C2CCCCC2)CC1 (racemic) [Ex. 1]     α1a/5-HT1A             138
4  COc1ccccc1N1CCN(CC[C@H](c2ccccc2)[C@@H](O)C2CCCCC2)CC1 (racemic) [Ex. 5, reference compound]     α1a/5-HT1A              78

###

Overview of reported D3/5-HT1A across a group of compounds:
target: rat D3 dopamine receptors (Rattus norvegicus, UniProt P19020); construct: expressed in transfected cells; host or cells: CHO cells (permanent expression); experiment: [3H]-7-OH-DPAT binding to rat recombinant D3 dopamine receptors (SPA); details: selectivity: ratio of Ki at D3 and Ki at 5-HT1A
Sequence (P19020 whole entry): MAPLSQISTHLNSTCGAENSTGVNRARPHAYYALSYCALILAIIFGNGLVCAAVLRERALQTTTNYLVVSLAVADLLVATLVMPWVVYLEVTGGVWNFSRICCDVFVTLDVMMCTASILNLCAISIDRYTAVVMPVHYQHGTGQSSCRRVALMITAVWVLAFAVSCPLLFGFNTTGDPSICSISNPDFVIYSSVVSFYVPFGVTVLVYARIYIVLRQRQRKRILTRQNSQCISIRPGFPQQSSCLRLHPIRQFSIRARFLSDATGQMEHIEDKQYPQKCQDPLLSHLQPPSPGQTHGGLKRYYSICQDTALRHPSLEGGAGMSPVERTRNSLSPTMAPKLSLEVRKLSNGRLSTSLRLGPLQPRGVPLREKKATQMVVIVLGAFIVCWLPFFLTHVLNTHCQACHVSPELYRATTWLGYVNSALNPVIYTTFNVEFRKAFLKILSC
quantity.kind: D3/5-HT1A

> print(dat)
                                   compound  reported.value
1  COc1ccccc1N1CCN(CC[C@H](c2ccccc2F)[C@@H](O)C2CCCCC2)CC1              54
2  COc1ccccc1N1CCN(CC[C@H](c2ccccc2)[C@@H](O)C2CCCCC2)CC1 (racemic) [Ex. 5, reference compound]              11
3  COc1ccccc1N1CCN(CC[C@H](c2ccccc2F)[C@H](O)C2CCCCC2)CC1              12
4  COc1ccccc1N1CCN(CC[C@@H](c2ccccc2F)[C@H](O)C2CCCCC2)CC1 (racemic)              96

###

test system: rhythmic bladder-voiding contractions in anaesthetised rats; test: Rhythmic bladder-voiding contractions induced by bladder filling in anaesthetised rats; type: in vivo, rat; details: Rattus norvegicus; intravenous administration, anaesthetised rats; read-out: ED50 (frequency) (extrapolated dose inducing a reduction of the number of contractions > 30% in 50% of treated rats)
quantity.kind: ED50 (mg/kg)

> print(dat)
                                   compound  units.of.measure  cmp  reported.value
1  COc1ccccc1N1CCN(CC[C@H](c2ccccc2F)[C@@H](O)C2CCCCC2)CC1             mg/kg    =           0.015
2  COc1ccccc1N1CCN(CC[C@H](c2ccccc2)[C@@H](O)C2CCCCC2)CC1 (racemic) [Ex. 5, reference compound]             mg/kg    =           0.018
3  CCN(CC)CC#CCOC(=O)C(O)(c1ccccc1)C1CCCCC1 (stereo not shown)             mg/kg    >              10
4  COc1ccccc1N1CCN(CC[C@@H](c2ccccc2F)[C@H](O)C2CCCCC2)CC1 (racemic)             mg/kg    =            0.03
